The values you see were collected from patent US8946142B2.

measured.on: rat AT1aR (Rattus norvegicus)
Sequence (P25095 whole entry): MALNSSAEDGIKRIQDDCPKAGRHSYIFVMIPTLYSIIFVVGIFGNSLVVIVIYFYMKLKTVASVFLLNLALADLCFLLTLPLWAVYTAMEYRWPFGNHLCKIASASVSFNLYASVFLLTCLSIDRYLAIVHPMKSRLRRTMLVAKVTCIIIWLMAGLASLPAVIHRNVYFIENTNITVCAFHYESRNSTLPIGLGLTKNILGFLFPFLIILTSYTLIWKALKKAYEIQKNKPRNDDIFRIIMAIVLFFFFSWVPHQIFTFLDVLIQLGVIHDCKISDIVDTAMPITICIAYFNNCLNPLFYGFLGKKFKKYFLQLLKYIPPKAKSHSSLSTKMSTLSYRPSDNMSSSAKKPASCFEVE
experiment.notes: beta-arrestin2 recruitment assay (PathHunter), rat AT1aR
Assay type: cell-based
settings: 1 h, read-out: Span (relative to hAngII)
Where a SMILES comes first, the peptide text is derived from it. [ ]: non-standard residue; d: D form. Ac6c = NC1(C(=O)O)CCCCC1; Aib = CC(C)(N)C(=O)O; Sar = CNCC(=O)O
assay.metric: Emax

1) CNCC(=O)N[C@@H](CCCNC(=N)N)C(=O)N[C@H](C(=O)N[C@@H](Cc1ccc(O)cc1)C(=O)NC1(C(=O)N[C@@H](Cc2c[nH]cn2)C(=O)N2CCC[C@H]2C(=O)NC(C)(C)C(=O)O)CCCCC1)C(C)C [SEQ ID NO: 35, Sar-Arg-Val-Tyr-cyHex-His-Pro-AA01] (H-[Sar]RVY[Ac6c]HP[Aib]-OH): < 105%
2) CNCC(=O)N[C@@H](CCCNC(=N)N)C(=O)N[C@H](C(=O)N[C@@H](Cc1ccc(O)cc1)C(=O)NC1(C(=O)N[C@@H](Cc2c[nH]cn2)C(=O)N2CCC[C@H]2C(=O)N[C@@H](Cc2c[nH]c3ccccc23)C(=O)O)CCCCC1)C(C)C [SEQ ID NO: 54, Sar-Arg-Val-Tyr-cyHex-His-Pro-Trp] (H-[Sar]RVY[Ac6c]HPW-OH): < 105%

###

measured.on: human AT1R (Homo sapiens, UniProt P30556)
Sequence (P30556 1-359): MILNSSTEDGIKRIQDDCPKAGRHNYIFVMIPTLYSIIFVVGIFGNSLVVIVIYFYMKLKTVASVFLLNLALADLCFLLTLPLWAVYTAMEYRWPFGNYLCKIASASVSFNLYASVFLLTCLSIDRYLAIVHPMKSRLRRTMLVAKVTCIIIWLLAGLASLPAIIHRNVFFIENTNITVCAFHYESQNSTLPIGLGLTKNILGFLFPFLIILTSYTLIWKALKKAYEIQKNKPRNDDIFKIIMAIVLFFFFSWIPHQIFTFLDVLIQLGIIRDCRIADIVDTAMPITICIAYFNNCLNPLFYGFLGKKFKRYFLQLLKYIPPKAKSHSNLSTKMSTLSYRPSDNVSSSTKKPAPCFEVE
experiment.notes: IP1 accumulation assay (IP1 G-protein assay), human AT1R
Format: cell-based
settings: read-out: pEC50 (converted)
Where a SMILES comes first, the peptide text is derived from it. [ ]: non-standard residue; d: D form. Ac6c = NC1(C(=O)O)CCCCC1; Ac5c = NC1(C(=O)O)CCCC1; Sar = CNCC(=O)O
# key: entry, value: EC50
assay.metric: EC50

1) CNCC(=O)N[C@@H](CCCNC(=N)N)C(=O)N[C@H](C(=O)N[C@@H](Cc1ccc(O)cc1)C(=O)NC1(C(=O)N[C@@H](Cc2c[nH]cn2)C(=O)N2CCC[C@H]2C(=O)N[C@@H](CO)C(=O)O)CCCC1)C(C)C [SEQ ID NO: 22, Sar-Arg-Val-Tyr-cyPen-His-Pro-Ser] (H-[Sar]RVY[Ac5c]HPS-OH): > 0.631 nM
2) CNCC(=O)N[C@@H](CCCNC(=N)N)C(=O)N[C@H](C(=O)N[C@@H](Cc1ccc(O)cc1)C(=O)NC1(C(=O)N[C@@H](Cc2c[nH]cn2)C(=O)N2CCC[C@H]2C(=O)N[C@H](C(=O)O)[C@@H](C)O)CCCCC1)C(C)C [SEQ ID NO: 14, Sar-Arg-Val-Tyr-cyHex-His-Pro-Thr] (H-[Sar]RVY[Ac6c]HPT-OH): > 0.631 nM
3) CNCC(=O)N[C@@H](CCCNC(=N)N)C(=O)N[C@H](C(=O)N[C@@H](Cc1ccc(O)cc1)C(=O)NC1(C(=O)N[C@@H](Cc2c[nH]cn2)C(=O)N2CCC[C@H]2C(=O)N[C@H](C(=O)O)C(C)C)CCCC1)C(C)C [SEQ ID NO: 20, Sar-Arg-Val-Tyr-cyPen-His-Pro-Val] (H-[Sar]RVY[Ac5c]HPV-OH): > 0.631 nM
